Sourced from ChEMBL document CHEMBL3988442

Parameter Percent Effect: see the listing below.
Test system: Wolbachia pipientis
Test: Anti-Wolbachia Cell-Based Screen
Type: functional
Parameters: scale not given: in the data most compounds retested in dose-response had high values
Conditions: 5 µM
About 13,000 (27%) of roughly 48,000 compounds showed an effect of 50% or more. The list shows a part of the results.

{"columns": ["molecule", "units label", "Percent Effect"],
 "data": [
  ["O=C1CCCN1Cc1nnc2n1CCCN(C(=O)c1ccco1)C2", "%", 122.9],
  ["CCS(=O)(=O)c1ccc(N2CCC(NC(=O)c3ccccn3)CC2)cc1", "%", 1.284],
  ["O=C(C1CCC1)N1CCN(C(=O)c2cnccn2)[C@H]2CS(=O)(=O)C[C@H]21", "%", -11.57],
  ["Cc1cccc(C(=O)N2CCCn3c(CN4CCCCC4)nnc3C2)c1", "%", -5.352],
  ["CCC(=O)c1ccc(OCC(=O)N2CCNCC2C(=O)NC2CC2)cc1 (stereo not drawn)", "%", -8.081],
  ["CN(Cc1nc(CS(C)(=O)=O)no1)c1ccccc1", "%", 1.355],
  ["CC(C)n1ncc2c1NC(=O)C(C#N)C21CCCC1 (stereo not drawn)", "%", 15.91],
  ["NC(=O)c1cn[nH]c1C1CCCN1C(=O)c1cnccn1 (stereo not drawn)", "%", 109.9],
  ["O=C(NCC(F)(F)F)c1nnn(-c2ccccc2)c1C(F)(F)F", "%", -4.958],
  ["Cc1cnn(CCCNC(=O)NC2CCN(CC(F)(F)F)C2=O)c1 (stereo not drawn)", "%", -8.389],
  ["O=C(c1ccc[nH]1)N1CCc2nnc(Cn3cccn3)n2CC1", "%", 121.3],
  ["O=C(O)C(F)(F)F.O=C(c1ccccc1F)N1CCCn2c(CN3CCCCC3)nnc2C1", "%", 18.71],
  ["O=C(c1cc2c([nH]c1=O)CCC2)N1CCCC1c1cccnc1 (stereo not drawn)", "%", -4.003],
  ["Cc1ccc(-c2ncc(C(=O)NCCS(N)(=O)=O)s2)c(C)c1", "%", -6.964],
  ["O=C(c1ccc[nH]1)N1CCCn2c(CN3CCCCC3)nnc2C1", "%", 104.7],
  ["N#Cc1ccc(CS(=O)(=O)NC(=O)c2ccc3c(c2)COC3)cc1", "%", -4.05],
  ["C=C(C)CN(CC)Cc1nc(C)no1", "%", 10.24],
  ["O=C(O)C(F)(F)F.O=C(O)C(F)(F)F.O=C(c1c[nH]cn1)N1CCCn2c(CN3CCCCC3)nnc2C1", "%", 0.5876],
  ["CC1CCN(C)c2ccccc2N1C(=O)c1ccc(=O)n(C)c1 (stereo not drawn)", "%", -5.744],
  ["CC1CCN(C)c2ccccc2N1C(=O)c1ccnc(-n2cncn2)c1 (stereo not drawn)", "%", -2.842],
  ["Cc1ccc(NC(=O)NC(C)(C)c2noc(C)n2)cc1", "%", -4.171],
  ["c1cnn(Cc2nnc3n2CCCN(c2nccs2)C3)c1", "%", -8.945],
  ["CC(C)N(C)Cc1nnc2n1CCCN(C(=O)c1ccco1)C2", "%", 10.89]
]}

====

Parameter Percent Effect: see the listing below.
Test system: Wolbachia pipientis
Assay: Anti-Wolbachia Cell-Based Screen
Format: functional
Set-up: scale not given: in the data most compounds retested in dose-response had high values
Conditions: 5 µM
Screen size: about 48,000 compounds; about 13,000 (27%) showed an effect of 50% or more. The list shows a part of the results.
metric: Percent Effect

{"columns": ["compound", "system tested", "metric", "result"],
 "data": [
  ["c1ccc(Oc2ncccc2CNCc2ccccn2)cc1", "Wolbachia pipientis", "Percent Effect", "6.646%"],
  ["COc1cccc(-c2nc(CNCCc3cccnc3)cs2)c1", "Wolbachia pipientis", "Percent Effect", "20%"],
  ["O=C1NCCCCC1SCc1coc(-c2ccccc2)n1 (stereo unspecified)", "Wolbachia pipientis", "Percent Effect", "-18.22%"],
  ["CC(C)COCC(NC(=O)c1ccccn1)c1ccco1 (stereo unspecified)", "Wolbachia pipientis", "Percent Effect", "12.33%"],
  ["c1ccc(-c2nnn3c2COC(CNCc2ccccn2)C3)cc1 (stereo unspecified)", "Wolbachia pipientis", "Percent Effect", "-8.365%"],
  ["Cc1cc(C(=O)N2CCS(=O)(=O)CC2)c(C)o1", "Wolbachia pipientis", "Percent Effect", "128.6%"],
  ["CCn1ccnc1S(=O)(=O)Cc1c(C)cc(C)c(C(C)=O)c1C", "Wolbachia pipientis", "Percent Effect", "-13.95%"],
  ["CNC(=O)CS(=O)(=O)Cc1coc(-c2ccc(OC)cc2)n1", "Wolbachia pipientis", "Percent Effect", "-17.74%"],
  ["O=C(Cn1cc(Cl)cn1)Nc1ccc2c(c1)OCCCO2", "Wolbachia pipientis", "Percent Effect", "-3.42%"],
  ["O=c1ccc(-c2ccccc2F)nn1CCN1CCCS1(=O)=O", "Wolbachia pipientis", "Percent Effect", "-2.823%"],
  ["c1ccc(-c2nc(CNCCn3cccn3)cs2)cc1", "Wolbachia pipientis", "Percent Effect", "17.11%"],
  ["CCn1cc(NC(=O)NCC(C)O)cn1 (stereo unspecified)", "Wolbachia pipientis", "Percent Effect", "-13.78%"],
  ["CN1CCCN(Cc2nc(Cc3ccccc3)n[nH]2)CC1", "Wolbachia pipientis", "Percent Effect", "19.97%"],
  ["c1ccc(-c2nc(CCNCc3ccncc3)co2)cc1", "Wolbachia pipientis", "Percent Effect", "91.06%"],
  ["COc1cc(C(=O)N2CCCS2(=O)=O)cc(Cl)c1OC", "Wolbachia pipientis", "Percent Effect", "11.62%"],
  ["CCn1cc(NC(=O)NCc2ccc3c(c2)OCO3)cn1", "Wolbachia pipientis", "Percent Effect", "135.2%"],
  ["CC(CS(C)(=O)=O)N(C(=O)CCc1ccc(Cl)s1)C1CC1 (stereo unspecified)", "Wolbachia pipientis", "Percent Effect", "-4.139%"],
  ["Cc1cc(C(=O)N2CCN(Cn3cc(Cl)cn3)CC2)c(C)o1", "Wolbachia pipientis", "Percent Effect", "0.3754%"],
  ["c1ccc(-c2nc(CCNCc3ccccn3)co2)cc1", "Wolbachia pipientis", "Percent Effect", "85.74%"],
  ["CSc1nccc(N2CCC(=O)N(CC3CC3)C(C(C)C)C2)n1 (stereo unspecified)", "Wolbachia pipientis", "Percent Effect", "8.272%"],
  ["CC(C)Cc1ncc2c(n1)CN(c1cc(NC3CC3)nc(N)n1)C2", "Wolbachia pipientis", "Percent Effect", "10.04%"],
  ["CCn1cc(NC(=O)NCC2(N3CCOCC3)CCSC2)cn1 (stereo unspecified)", "Wolbachia pipientis", "Percent Effect", "-22.54%"],
  ["COc1ccc(-c2nc(CCNc3nnc(C)c(C)c3C#N)co2)cc1", "Wolbachia pipientis", "Percent Effect", "14.52%"],
  ["COc1cc(C(=O)N2CCCS2(=O)=O)ccc1C", "Wolbachia pipientis", "Percent Effect", "-0.1842%"],
  ["O=C1N(c2ccc(Br)cc2)Cc2nc(=O)[nH]n21", "Wolbachia pipientis", "Percent Effect", "13.29%"],
  ["Cc1occc1C(=O)N1CCCS1(=O)=O", "Wolbachia pipientis", "Percent Effect", "102.9%"]
]}

====

Test system: Wolbachia pipientis
Test: Anti-Wolbachia Cell-Based Screen
Assay type: functional
Parameters: scale not given: in the data most compounds retested in dose-response had high values
Conditions: 5 µM
Out of some 48,000 compounds screened, about 13,000 (27%) showed an effect of 50% or more. The list shows a part of the results.
Parameter Percent Effect: see the listing below.

{"columns": ["molecule", "Percent Effect / %"],
 "data": [
  ["CC(C)N1CCC2(CCCN(C(=O)c3cncn3C)C2)CC1.O=C(O)C(F)(F)F", 0.429],
  ["CCC(NC(=O)CC(F)(F)F)c1ccccc1OCC(=O)N1CCCC1 (stereo unspecified)", -4.718],
  ["Cc1cc(N2CCN(C3CCSCC3)CC2)n2nc(C)c(C)c2n1", -17.53],
  ["CC[C@@H](CO)NC(=O)c1coc(COc2ccc3sc(C)nc3c2)n1", -14.59],
  ["F[C@@H]1CN(CC2CC2)C[C@@H]1OCc1nc2ccccc2[nH]1", -1.846],
  ["CS(=O)(=O)NCC1(c2ccccc2Br)CC1", 1.161],
  ["COCCCN(C)c1ncccc1I", 0.1394],
  ["CC(C(=O)NCC1(c2cccc(Br)c2)CCC1)S(C)(=O)=O (stereo unspecified)", -10.98],
  ["COc1cccc([C@@H]2N[C@H](c3nccs3)Cc3ccsc32)c1OC", 146.2],
  ["COC(=O)CN(C(=O)c1ccc(Cl)cn1)c1cccc(F)c1", -0.7063],
  ["CCc1nnc2ccc(NCC3(O)CCOCC3)nn12", -3.397]
]}
